Here the recorded inhibition at 0.3 µM is given for each entry.
study.target: P2X7 receptor (IL-1β release from THP-1 cells) (Homo sapiens, UniProt Q99572)
Construct: host or cells: THP-1 cells differentiated with LPS and IFN-γ
Sequence (Q99572 whole entry): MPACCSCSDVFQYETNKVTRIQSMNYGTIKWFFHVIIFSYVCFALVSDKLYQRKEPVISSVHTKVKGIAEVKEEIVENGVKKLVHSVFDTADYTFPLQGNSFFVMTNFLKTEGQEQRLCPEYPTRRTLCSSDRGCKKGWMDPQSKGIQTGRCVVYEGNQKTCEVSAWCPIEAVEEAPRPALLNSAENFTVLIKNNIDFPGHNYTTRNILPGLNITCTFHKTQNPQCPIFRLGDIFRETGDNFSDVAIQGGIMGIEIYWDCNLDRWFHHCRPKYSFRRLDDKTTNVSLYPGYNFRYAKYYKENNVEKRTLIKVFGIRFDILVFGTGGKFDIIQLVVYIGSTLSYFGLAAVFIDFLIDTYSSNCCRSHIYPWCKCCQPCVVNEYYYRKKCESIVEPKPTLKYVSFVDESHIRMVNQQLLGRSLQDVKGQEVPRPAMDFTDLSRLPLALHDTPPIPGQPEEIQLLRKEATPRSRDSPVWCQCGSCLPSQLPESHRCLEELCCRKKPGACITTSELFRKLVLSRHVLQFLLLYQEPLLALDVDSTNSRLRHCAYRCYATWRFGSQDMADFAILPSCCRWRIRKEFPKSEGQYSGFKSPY
assay.summary: IL-1β release assay in differentiated THP-1 cells stimulated with BzATP (Example 9)
Assay type: cell-based
setup.conditions: 0.3 μM concentration, BzATP 250 uM, read-out: IL-1β % Inhib. @ 0.3 or 0.1 μM

Some compounds with known inhibition at 0.3 µM results, for comparison:
compound="O=C(CC12CC3CC(CC(C3)C1)C2)Nc1cccc2c1CCN(CCO)C2=O [Compound 549]" data_value="> 76%"
compound="C[C@H](CO)N1CCc2c(NC(=O)CC34CC5CC(CC(C5)C3)C4)cccc2C1=O [Compound 526]" data_value="> 76%"
compound="O=C(CC12CC3CC(CC(C3)C1)C2)Nc1cccc2c(=O)n(CC3CCCN3)ccc12 (stereo not drawn) [Compound 504]" data_value="> 76%"

Suppose we examine the compound CNC(=O)[C@@H](C(C)C)n1ccc2c(NC(=O)CC34CC5CC(CC(C5)C3)C4)cccc2c1=O [Compound 592] ; what inhibition at 0.3 µM value has been reported?
> 76%

And then O=C(CC12CC3CC(CC(C3)C1)C2)Nc1cccc2c(=O)n(CCO)ccc12 [Compound 511] , what is it?
> 76%

And then O=C(CC1CCCCC1)Nc1cccc2c(=O)n(CCO)ccc12 [Compound 545] , what is it?
0 to 25%

And then CC(C)[C@H](C(N)=O)n1ccc2c(NC(=O)CC34CC5CC(C)(CC(C)(C5)C3)C4)cccc2c1=O [Compound 529] , what is it?
26 to 50%

And then C[C@H](C(=O)O)n1ccc2c(NC(=O)CC3CCCCCC3)cccc2c1=O [Compound 607] , what is it?
> 76%

And then O=C(CC12CC3CC(CC(C3)C1)C2)Nc1cccc2c1CCN(C(CO)CO)C2=O [Compound 508] , what is it?
> 76%

And then CC12CC3CC(C)(C1)CC(CC(=O)Nc1cccc4c(=O)n(C(CO)CO)ccc14)(C3)C2 [Compound 519] , what is it?
> 76%

----------
study.target: P2X7 receptor (IL-1β release from THP-1 cells) (Homo sapiens)
assay.summary: IL-1β release assay in differentiated THP-1 cells stimulated with BzATP (Example 9)
setup.conditions: released IL-1β as in Example 9, four parameter logistic fit
Consider the cut-off 0.005 µM. If the recorded IC50 is strictly smaller, the label is TRUE; if not, the label is FALSE.

Before answering, review these 5 worked examples.
compound="C[C@H](C(N)=O)n1ccc2c(NC(=O)[C@H](C)C3CCCCCC3)cccc2c1=O [Compound 608]" group=FALSE
compound="CC12CC3CC(C)(C1)CC(CC(=O)Nc1cccc4c(=O)n(CC(N)=O)ccc14)(C3)C2 [Compound 523]" group=TRUE
compound="C[C@@H](C(N)=O)n1ccc2c(NC(=O)CC3(O)CC(C)(C)CC(C)(C)C3)cccc2c1=O [Compound 556]" group=FALSE
compound="CC(C(N)=O)n1ccc2c(NC(=O)CC34CC5CC(CC(C5)C3)C4)cccc2c1=O (centres unmarked) [Compound 530]" group=TRUE
compound="NC(=O)CN1CCc2c(NC(=O)CC34CC5CC(CC(C5)C3)C4)cccc2C1=O [Compound 533]" group=TRUE

Lab note: IC50 threshold 0.005 µM. Does this compound come in strictly under it? C[C@@H](CO)n1ccc2c(NC(=O)CC3CCCCCC3)cccc2c1=O [Compound 605]
FALSE

And then O=C(CC1(O)CCCCCC1)Nc1cccc2c(=O)n(C[C@H]3CCCN3)ccc12 [Compound 578] , what is it?
FALSE

And then C[C@@H](C(N)=O)n1ccc2c(NC(=O)CC34CC5CC(CC(O)(C5)C3)C4)cccc2c1=O [Compound 574] , what is it?
FALSE
